- ASSAY_PROTOCOL: Plasma protein binding by equilibrium dialysis
- Format: in vitro ADME
- ASSAY_SETUP: both sexes; human plasma
Below, each of the molecules is paired with its reported recovery value.
OBSERVED_PROPERTY: recovery (%)

COc1cc(Cl)ccc1Nc1c(C#N)cnc2cc(OCCON3CCN(C)CC3)c(OC)cc12 [15a]: 95.8
COc1cc2c(Nc3cccc(OC)c3Cl)c(C#N)cnc2cc1OCCON1CCN(C)CC1 [12a]: 92.5
COc1cc(Nc2c(C#N)cnc3cc(OCCON4CCN(C)CC4)c(OC)cc23)c(F)cc1Cl [8a]: 99.9
COc1cc2c(Nc3cccc(OC)c3F)c(C#N)cnc2cc1OCCON1CCN(C)CC1 [13a]: 87.8

* * *

- ASSAY_PROTOCOL: in vitro
- ASSAY_SETUP: human, Caco-2
OBSERVED_PROPERTY: Papp B→A (×10⁻⁶ cm/s)

COc1cc(Cl)ccc1Nc1c(C#N)cnc2cc(OCCON3CCN(C)CC3)c(OC)cc12 [15a]: 4.44
COCCc1ccc(OCC(O)CNC(C)C)cc1 (centres unmarked) [Metoprolol, reference compound]: 19.4
COc1cc(Nc2c(C#N)cnc3cc(OCCON4CCN(C)CC4)c(OC)cc23)ccc1Cl [14a]: 37.4
C[C@H]1O[C@@H](O[C@H]2[C@@H](O)C[C@H](O[C@H]3[C@@H](O)C[C@H](O[C@H]4CC[C@@]5(C)[C@H](CC[C@@H]6[C@@H]5C[C@@H](O)[C@]5(C)[C@@H](C7=CC(=O)OC7)CC[C@]65O)C4)O[C@@H]3C)O[C@@H]2C)C[C@H](O)[C@@H]1O [Digoxin, reference compound]: 12.6
COc1cc2c(Nc3cccc(OC)c3F)c(C#N)cnc2cc1OCCON1CCN(C)CC1 [13a]: 33.6
COc1cc2c(Nc3cccc(Cl)c3F)c(C#N)cnc2cc1OCCON1CCN(C)CC1 [11a]: 27.4
COc1cc2c(Nc3cccc(OC)c3Cl)c(C#N)cnc2cc1OCCON1CCN(C)CC1 [12a]: 23.1
COc1cc(Nc2c(C#N)cnc3cc(OCCON4CCN(C)CC4)c(OC)cc23)c(F)cc1Cl: 12.1

* * *

- ASSAY_PROTOCOL: in vitro
- ASSAY_SETUP: human, Caco-2
Each entry below carries its recorded efflux ratio.
OBSERVED_PROPERTY: efflux ratio

COc1cc2c(Nc3cccc(Cl)c3F)c(C#N)cnc2cc1OCCON1CCN(C)CC1 [11a]: 7.4
COc1cc(Nc2c(C#N)cnc3cc(OCCON4CCN(C)CC4)c(OC)cc23)c(F)cc1Cl: 6.4
COc1cc2c(Nc3cccc(OC)c3F)c(C#N)cnc2cc1OCCON1CCN(C)CC1 [13a]: 12.4
COc1cc(Cl)ccc1Nc1c(C#N)cnc2cc(OCCON3CCN(C)CC3)c(OC)cc12 [15a]: 6.3
COc1cc(Nc2c(C#N)cnc3cc(OCCON4CCN(C)CC4)c(OC)cc23)ccc1Cl [14a]: 18.7
COc1cc2c(Nc3cccc(OC)c3Cl)c(C#N)cnc2cc1OCCON1CCN(C)CC1 [12a]: 3.6
C[C@H]1O[C@@H](O[C@H]2[C@@H](O)C[C@H](O[C@H]3[C@@H](O)C[C@H](O[C@H]4CC[C@@]5(C)[C@H](CC[C@@H]6[C@@H]5C[C@@H](O)[C@]5(C)[C@@H](C7=CC(=O)OC7)CC[C@]65O)C4)O[C@@H]3C)O[C@@H]2C)C[C@H](O)[C@@H]1O [Digoxin, reference compound]: 58.6

* * *

Listed next: entries and their corresponding Recovery% (BL-AP).
- Test system: Caco-2 cells
- ASSAY_PROTOCOL: Caco-2 permeability
- ASSAY_SETUP: Table S9
OBSERVED_PROPERTY: Recovery% (BL-AP) (%)

COCCc1ccc(OCC(O)CNC(C)C)cc1 (centres unmarked) [Metoprolol, reference compound]: 95.54
COc1cc2c(Nc3cccc(Cl)c3F)c(C#N)cnc2cc1OCCON1CCN(C)CC1 [11a]: 80.51
COc1cc(Nc2c(C#N)cnc3cc(OCCON4CCN(C)CC4)c(OC)cc23)c(F)cc1Cl: 72.31
COc1cc(Cl)ccc1Nc1c(C#N)cnc2cc(OCCON3CCN(C)CC3)c(OC)cc12 [15a]: 78.22
C[C@H]1O[C@@H](O[C@H]2[C@@H](O)C[C@H](O[C@H]3[C@@H](O)C[C@H](O[C@H]4CC[C@@]5(C)[C@H](CC[C@@H]6[C@@H]5C[C@@H](O)[C@]5(C)[C@@H](C7=CC(=O)OC7)CC[C@]65O)C4)O[C@@H]3C)O[C@@H]2C)C[C@H](O)[C@@H]1O [Digoxin, reference compound]: 92.72
COc1cc(Nc2c(C#N)cnc3cc(OCCON4CCN(C)CC4)c(OC)cc23)ccc1Cl [14a]: 92.37
COc1cc2c(Nc3cccc(OC)c3Cl)c(C#N)cnc2cc1OCCON1CCN(C)CC1 [12a]: 87.19
COc1cc2c(Nc3cccc(OC)c3F)c(C#N)cnc2cc1OCCON1CCN(C)CC1 [13a]: 92.56

* * *

- ASSAY_PROTOCOL: in vitro
- ASSAY_SETUP: human, Caco-2
Tick label 1 if Papp A→B is 2 ×10⁻⁶ cm/s or greater. Tick label 0 if Papp A→B is less than 2 ×10⁻⁶ cm/s.

COc1cc(Cl)ccc1Nc1c(C#N)cnc2cc(OCCON3CCN(C)CC3)c(OC)cc12 [15a]: label 0
COc1cc2c(Nc3cccc(OC)c3Cl)c(C#N)cnc2cc1OCCON1CCN(C)CC1 [12a]: label 1
COCCc1ccc(OCC(O)CNC(C)C)cc1 (centres unmarked) [Metoprolol, reference compound]: label 1
COc1cc(Nc2c(C#N)cnc3cc(OCCON4CCN(C)CC4)c(OC)cc23)c(F)cc1Cl: label 0
COc1cc2c(Nc3cccc(Cl)c3F)c(C#N)cnc2cc1OCCON1CCN(C)CC1 [11a]: label 1
COc1cc2c(Nc3cccc(OC)c3F)c(C#N)cnc2cc1OCCON1CCN(C)CC1 [13a]: label 1
C[C@H]1O[C@@H](O[C@H]2[C@@H](O)C[C@H](O[C@H]3[C@@H](O)C[C@H](O[C@H]4CC[C@@]5(C)[C@H](CC[C@@H]6[C@@H]5C[C@@H](O)[C@]5(C)[C@@H](C7=CC(=O)OC7)CC[C@]65O)C4)O[C@@H]3C)O[C@@H]2C)C[C@H](O)[C@@H]1O [Digoxin, reference compound]: label 0

* * *

The entries below are paired with their reported Remaining Percentages.
- ASSAY_PROTOCOL: Metabolic stability in hepatocytes
- Format: in vitro ADME, human
- ASSAY_SETUP: 15 min
OBSERVED_PROPERTY: Remaining Percentages (%)

COc1cc2c(Nc3cccc(Cl)c3F)c(C#N)cnc2cc1OCCON1CCN(C)CC1 [11a]: 82.49
COc1cc2c(Nc3cccc(OC)c3Cl)c(C#N)cnc2cc1OCCON1CCN(C)CC1 [12a]: 87.31
COc1cc(Nc2c(C#N)cnc3cc(OCCON4CCN(C)CC4)c(OC)cc23)ccc1Cl [14a]: 83.13
COc1cc(Cl)ccc1Nc1c(C#N)cnc2cc(OCCON3CCN(C)CC3)c(OC)cc12 [15a]: 78.44
COc1cc2c(Nc3cccc(OC)c3F)c(C#N)cnc2cc1OCCON1CCN(C)CC1 [13a]: 97.02
COc1cc(Nc2c(C#N)cnc3cc(OCCON4CCN(C)CC4)c(OC)cc23)c(F)cc1Cl: 69.28

* * *

- Test system: MDR1 (P-gp)
- ASSAY_PROTOCOL: in vitro
- ASSAY_SETUP: dog, MDCK-MDR1
Give condition met when the value for Papp B→A is at least 20 ×10⁻⁶ cm/s. Give condition not met when it is less.

COc1cc(Cl)ccc1Nc1c(C#N)cnc2cc(OCCON3CCN(C)CC3)c(OC)cc12 [15a]: condition met
COc1cc(Nc2c(C#N)cnc3cc(OCCON4CCN(C)CC4)c(OC)cc23)c(F)cc1Cl: condition not met
COc1cc(Nc2c(C#N)cnc3cc(OCCON4CCN(C)CC4)c(OC)cc23)ccc1Cl [14a]: condition met
COc1cc2c(Nc3cccc(OC)c3F)c(C#N)cnc2cc1OCCON1CCN(C)CC1 [13a]: condition met
COc1cc2c(Nc3cccc(Cl)c3F)c(C#N)cnc2cc1OCCON1CCN(C)CC1 [11a]: condition met
COc1cc2c(Nc3cccc(OC)c3Cl)c(C#N)cnc2cc1OCCON1CCN(C)CC1 [12a]: condition met

* * *

- ASSAY_PROTOCOL: Metabolic stability in hepatocytes
- Type: in vitro ADME, human
- ASSAY_SETUP: human hepatocytes
OBSERVED_PROPERTY: t1/2 (H) (min)

COc1cc(Cl)ccc1Nc1c(C#N)cnc2cc(OCCON3CCN(C)CC3)c(OC)cc12 [15a]: 51.7
COc1cc(Nc2c(C#N)cnc3cc(OCCON4CCN(C)CC4)c(OC)cc23)ccc1Cl [14a]: 62.3
COc1cc2c(Nc3cccc(OC)c3F)c(C#N)cnc2cc1OCCON1CCN(C)CC1 [13a]: 134.6
COc1cc2c(Nc3cccc(OC)c3Cl)c(C#N)cnc2cc1OCCON1CCN(C)CC1 [12a]: 80.4
COc1cc(Nc2c(C#N)cnc3cc(OCCON4CCN(C)CC4)c(OC)cc23)c(F)cc1Cl: 34.2
COc1cc2c(Nc3cccc(Cl)c3F)c(C#N)cnc2cc1OCCON1CCN(C)CC1 [11a]: 49.7
